conditions: in acetonitrile, 283.15 K

STRUCTURE AS SMILES: CC1(C)CC(NCCCCCCNC2CC(C)(C)NC(C)(C)C2)CC(C)(C)N1
solubility (mole fraction): 0.00233

---

settings: in isobutyl acetate, 293.15 K
OUTCOME MEASURE: solubility (mole fraction)

STRUCTURE AS SMILES: CC1(C)CC(NCCCCCCNC2CC(C)(C)NC(C)(C)C2)CC(C)(C)N1
OUTCOME MEASURE: solubility (mole fraction)
READOUT VALUE: 0.139

---

settings: in isobutyl acetate, 273.15 K

STRUCTURE AS SMILES: CC1(C)CC(NCCCCCCNC2CC(C)(C)NC(C)(C)C2)CC(C)(C)N1
solubility (mole fraction): 0.0497
